- System: CCRF-CEM
- protocolDescription: Cytotoxicity against human CCRF-CEM cells assessed as cell viability at 10 uM incubated for 48 hrs by sulforhodamine B assay relative to control
- Assay type: functional
- experimentalConditions: read-out: Activity
metricName: viability at 10 µM (%)
Give bare numbers, in %.

These solved cases illustrate the format of a correct answer.
structureSmiles: O=S(=O)(NCCNc1nccc(-c2c(-c3cccc(F)c3)nc3sccn23)n1)c1ccc(F)cc1
viability at 10 µM, %: 54.7
//
structureSmiles: O=C(NCCNc1nccc(-c2c(-c3cccc(F)c3)nc3sccn23)n1)c1ccc(C(F)(F)F)cc1
viability at 10 µM, %: 53.5

Now look at this one.
Problem: Look up viability at 10 µM for this molecule: O=S(=O)(NCCCNc1nccc(-c2c(-c3cccc(F)c3)nc3sccn23)n1)c1ccccc1
Solution: 44.1
